- System: Botrytis cinerea
- assay-summary: Test A: tomato Botrytis, preventive spray on tomato seedlings, visual disease rating
- conditions-used: tomato Botrytis; 100 = 100% disease control, 0 = no disease control relative to the controls
measured-endpoint: Test A rating (disease control)
Number first, unit second.

Past entries and their recorded results:
molecule-smiles	assayed-target	Test A rating (disease control)
Cc1nn(C)c(Nc2c(F)cc(F)cc2F)c1-c1ccc(Cl)cc1Cl	Botrytis cinerea	100%
COc1ccc(-c2c(C)nn(C)c2Nc2ccc(Cl)cc2Cl)c(Cl)c1	Botrytis cinerea	99%
Cc1nn(C)c(Nc2ccc(Cl)cc2F)c1-c1c(F)cccc1F	Botrytis cinerea	100%
COc1cc(F)c(-c2c(C)nn(C)c2Nc2c(F)cc(C#N)cc2F)c(F)c1	Botrytis cinerea	100%
Cc1nn(C)c(Nc2c(Cl)cc(Br)cc2Cl)c1-c1ccc(F)cc1F	Botrytis cinerea	100%
Cc1nn(C)c(Nc2ccc(C#N)cc2F)c1-c1ccc(F)cc1F	Botrytis cinerea	99%
COc1cc(F)c(Nc2c(-c3c(F)cccc3Cl)c(C)nn2C)c(F)c1	Botrytis cinerea	99%
CCOc1cc(F)c(-c2c(C)nn(C)c2Nc2ccc(F)cc2F)c(F)c1	Botrytis cinerea	99%
COc1ccc(-c2c(C)nn(C)c2Oc2ccc(C#N)cc2Cl)c(Br)c1	Botrytis cinerea	99%
Cc1nn(C)c(Nc2c(F)cc(F)cc2Cl)c1-c1c(F)cccc1Cl	Botrytis cinerea	100%

// input: 3 compounds below; output: Test A rating (disease control) for each
1. Cc1nn(C)c(Nc2c(Cl)cc(F)cc2Br)c1-c1ccc(F)cc1F
2. Cc1nn(C)c(Oc2ccc(C#N)cc2Cl)c1-c1c(F)cc(F)cc1F
3. COc1cc(F)c(Nc2c(-c3ccc(Cl)cc3Cl)c(C)nn2C)c(F)c1

Return:
1: 100%; 2: 100%; 3: 99%

====

- Tested on: Alternaria solani
- assay-summary: Test B: tomato early blight, preventive spray on tomato seedlings, visual disease rating
- conditions-used: tomato early blight, preventive spray; 100 = 100% disease control; rating without asterisk
Can you tell me Test B rating (% disease control) for the items I'm about to list?
Numbers only, in %.

Past entries and their recorded results:
molecule-smiles	unit-label	Test B rating (% disease control)
Cc1nn(C)c(Nc2c(F)cc(Br)cc2Br)c1-c1ccc(F)cc1Cl	%	100
Cc1nn(C)c(Nc2c(F)cc(F)cc2I)c1-c1ccc(F)cc1Br	%	100
Cc1nn(C)c(Nc2c(F)cc(Br)cc2Br)c1-c1ccc(F)cc1F	%	99

// input: 4 compounds below; output: Test B rating (% disease control) for each
1. CCOc1ccc(-c2c(C)nn(C)c2Nc2c(F)cc(F)cc2Cl)c(F)c1
2. COc1ccc(-c2c(C)nn(C)c2Nc2c(F)cc(Cl)cc2Cl)c(F)c1
3. Cc1nn(C)c(Nc2c(F)cc(Cl)cc2Br)c1-c1ccc(F)cc1Cl
4. Cc1nn(C)c(Nc2c(F)cc(F)cc2Br)c1-c1ccc(Cl)cc1F

Return:
99
99
100
99

// input: 2 compounds below; output: Test B rating (% disease control) for each
1. CCOc1ccc(-c2c(C)nn(C)c2Nc2c(F)cc(Cl)cc2F)c(F)c1
2. Cc1nn(C)c(Nc2ccc(F)cc2I)c1-c1ccc(F)cc1Cl

Return:
88
99

====

Can you tell me Test B rating (disease control) for the items I'm about to list?
- Tested on: Alternaria solani
- assay-summary: Test B: tomato early blight, preventive spray on tomato seedlings, visual disease rating
- conditions-used: tomato early blight; 100 = 100% disease control, 0 = no disease control relative to the controls
Number first, unit second.

Past entries and their recorded results:
molecule	assayed-target	Test B rating (disease control)
Cc1nn(C)c(Oc2ccc(Cl)cc2Cl)c1-c1c(F)cc(F)cc1F [compound 9]	Alternaria solani	9%
Cc1nn(C)c(Nc2c(Cl)cc(Cl)cc2Cl)c1-c1ccc(F)cc1Cl [compound 170]	Alternaria solani	0%
Cc1nn(C)c(Oc2ccc(C#N)cc2Cl)c1-c1ccc(F)cc1Br [compound 80]	Alternaria solani	0%
COc1ccc(-c2c(C)nn(C)c2Nc2c(F)cc(F)cc2F)c(Cl)c1 [compound 29]	Alternaria solani	99%
Cc1nn(C)c(Nc2c(F)cc(F)cc2F)c1-c1c(F)cccc1Cl [compound 56]	Alternaria solani	100%
Cc1nn(C)c(C(O)c2ccc(Cl)cc2F)c1-c1ccc(F)cc1Cl (racemic) [compound 177]	Alternaria solani	0%
Cc1nn(C)c(Nc2ccc(F)cc2F)c1-c1ccccc1F [compound 52]	Alternaria solani	44%
Cc1nn(C)c(Nc2ccc(Br)cc2Cl)c1-c1ccc(F)cc1Cl [compound 172]	Alternaria solani	73%

Here's the next entry for you.
Enquiry: Test B rating (disease control) for Cc1nn(C)c(Nc2c(F)cc(C#N)cc2F)c1-c1c(F)cccc1F [compound 90] ?
Return: 87%
